# Study Target: T1, EsCas13d, nuclease-dead (Eubacterium siraeum, UniProt B0MS50, R295A;H300A;R849A;H854A)
# T1 sequence: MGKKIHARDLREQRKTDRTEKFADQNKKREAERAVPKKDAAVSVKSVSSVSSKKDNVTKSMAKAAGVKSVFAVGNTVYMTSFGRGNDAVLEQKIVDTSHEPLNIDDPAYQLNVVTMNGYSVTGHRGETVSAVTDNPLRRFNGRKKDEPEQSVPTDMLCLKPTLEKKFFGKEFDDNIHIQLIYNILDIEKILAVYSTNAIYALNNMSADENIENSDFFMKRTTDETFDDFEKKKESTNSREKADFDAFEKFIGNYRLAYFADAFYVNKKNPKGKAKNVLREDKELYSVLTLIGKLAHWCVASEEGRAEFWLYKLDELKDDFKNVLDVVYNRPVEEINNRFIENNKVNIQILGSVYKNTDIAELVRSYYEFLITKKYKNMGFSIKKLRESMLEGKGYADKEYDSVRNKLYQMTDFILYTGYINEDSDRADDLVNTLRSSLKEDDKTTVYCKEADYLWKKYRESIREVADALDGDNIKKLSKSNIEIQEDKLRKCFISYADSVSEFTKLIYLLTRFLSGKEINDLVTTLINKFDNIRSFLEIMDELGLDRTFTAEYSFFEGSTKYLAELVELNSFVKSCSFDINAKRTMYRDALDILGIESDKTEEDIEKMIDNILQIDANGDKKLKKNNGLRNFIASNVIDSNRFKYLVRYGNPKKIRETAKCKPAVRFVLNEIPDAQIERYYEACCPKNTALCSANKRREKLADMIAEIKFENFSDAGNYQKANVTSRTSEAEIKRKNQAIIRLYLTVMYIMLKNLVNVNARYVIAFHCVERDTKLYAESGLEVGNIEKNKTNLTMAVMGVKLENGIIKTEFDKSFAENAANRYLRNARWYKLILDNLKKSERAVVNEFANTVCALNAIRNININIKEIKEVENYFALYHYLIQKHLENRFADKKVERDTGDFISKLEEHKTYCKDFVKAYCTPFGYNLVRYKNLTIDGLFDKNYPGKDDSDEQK
# Protocol Text: crRNA (strand 1, pre-loaded); Mg2+; 40 mM Tris-HCl pH 7.5, 150 mM NaCl, 6 mM MgCl2, 1 mM DTT, 0.1% Tween-20, 0.2 mg/ml BSA; 25 C; 10 min per concentration, then washed
# Condition Label: tags: His6-TwinStrep-SUMO cleaved; N-terminal SNAP kept (SNAP-Surface 488); label: 3' end held by stalled T7 RNA polymerase
Reported Metric: Kd (nM)
Give bare numbers, in nM.

Binder | Kd / nM
target 1 C2G,U11A (mixed) RNA 1: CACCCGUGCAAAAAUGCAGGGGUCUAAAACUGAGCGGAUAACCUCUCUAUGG RNA 2: GGGAAUGGAUCCACAUCUACGAAUUCGUACCAUAGAGAGGAUAUCCGCUGACCGAGAUCGGAAGAGCACACGU | 13.6
target 1 MT 5'PFS GUG 3'PFS AGA (mixed) RNA 1: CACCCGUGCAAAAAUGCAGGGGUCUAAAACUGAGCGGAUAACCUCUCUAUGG RNA 2: GGGAAUGGAUCCACAUCUACGAAUUCGUGCCAUAGAGAGGUUAUCCGCUCAAGAAGAUCGGAAGAGCACACGU | 15.9
target 1 C2U,A9G (mixed) RNA 1: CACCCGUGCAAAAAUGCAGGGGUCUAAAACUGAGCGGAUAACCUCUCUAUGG RNA 2: GGGAAUGGAUCCACAUCUACGAAUUCGUACCAUAGAGAGGUUGUCCGCUUACCGAGAUCGGAAGAGCACACGU | 15.4

# context switch: different binder, same Kd
Name the recorded Kd of the binder listed here: target 1 insC 3' of 19,insU 3' of 15 (mixed) RNA 1: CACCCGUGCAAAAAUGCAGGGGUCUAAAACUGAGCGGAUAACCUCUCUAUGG RNA 2: GGGAAUGGAUCCACAUCUACGAAUUCGUACCAUCAGAGUAGGUUAUCCGCUCACCGAGAUCGGAAGAGCACACGU
62
